# Lookup of reported self-cleavage keyed by entry
B1: CPEB3 Ribozyme (parent)
chain: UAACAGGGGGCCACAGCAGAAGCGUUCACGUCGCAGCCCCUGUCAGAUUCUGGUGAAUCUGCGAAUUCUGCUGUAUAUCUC

- Variants of: B1
- experimental.protocol: self-cleavage, relative activity (ratio to wild type); higher = more cleavage; in vitro, sequencing
measured.parameter: self-cleavage

| mutation.id | measured.parameter | recorded.result |
| --- | --- | --- |
| U54C U66A | self-cleavage | 0.52 |
| G9U A18U | self-cleavage | 0.2 |
| G6U A45G | self-cleavage | 0.11 |
| U31G G52A | self-cleavage | 0.74 |
| G63C U67C | self-cleavage | 0.31 |
| G42A U58A | self-cleavage | 0.21 |
| A35G C50U | self-cleavage | 1.35 |
| U67A U72C | self-cleavage | 0.49 |
| A28C C32A | self-cleavage | 0.24 |
| G19C A77G | self-cleavage | 0.24 |
| A45U G73A | self-cleavage | 1.23 |
| A15G C71U | self-cleavage | 0.28 |
| G19A A45U | self-cleavage | 0.07 |
| C23A U76C | self-cleavage | 0.21 |
| C62A U67A | self-cleavage | 0.32 |
| U25C U60A | self-cleavage | 0.24 |
| A2G A75G | self-cleavage | 0.54 |
| A28C A45G | self-cleavage | 0.39 |
| U43C U54G | self-cleavage | 0.49 |
| G16A A35G | self-cleavage | 1.02 |
| G19U C37U | self-cleavage | 0.38 |
| U54C G61A | self-cleavage | 0.65 |
| A13U U43C | self-cleavage | 0.93 |
| G16U U69A | self-cleavage | 0.22 |
| C11U A13G | self-cleavage | 0.43 |
| A45U C79A | self-cleavage | 0.8 |
| G7C A35C | self-cleavage | 0.09 |
| U58A U67C | self-cleavage | 0.31 |
| G30A G36U | self-cleavage | 0.44 |
| A47U U54C | self-cleavage | 0.37 |
| A13U A15G | self-cleavage | 0.69 |
| C12A G46U | self-cleavage | 0.38 |
| A45G A47U | self-cleavage | 0.28 |
| U67G U78C | self-cleavage | 0.3 |
| A5G G16U | self-cleavage | 0.54 |
| A64G G70C | self-cleavage | 0.21 |
| A18G C27G | self-cleavage | 0.41 |
| U25A U31C | self-cleavage | 0.17 |
| U25C | self-cleavage | 0.29 |
| A56G A77U | self-cleavage | 0.99 |
| A65U U69C | self-cleavage | 0.45 |
| A35U C71A | self-cleavage | 0.13 |
| A47G U78A | self-cleavage | 1.07 |
| U26A U48A | self-cleavage | 0.35 |
| G22A U58C | self-cleavage | 0.27 |
| G6A U49A | self-cleavage | 0.08 |
| U31G G36U | self-cleavage | 0.15 |
| G42A A64U | self-cleavage | 0.14 |
| U51C G63A | self-cleavage | 0.61 |
| G24A G53A | self-cleavage | 0.53 |
| A28U U31A | self-cleavage | 0.41 |
| C32U A56G | self-cleavage | 0.17 |
| U1C C50A | self-cleavage | 0.61 |
| C29G U43C | self-cleavage | 0.3 |
| U60C A75G | self-cleavage | 0.37 |
| G16C | self-cleavage | 0.35 |
| C40A G42U | self-cleavage | 0.31 |
| U72G U78G | self-cleavage | 1 |
| U66C U67G | self-cleavage | 0.32 |
| G9C C79A | self-cleavage | 0.58 |
| C14U A35C | self-cleavage | 1.11 |
| A75G U76A | self-cleavage | 1.05 |
| A35G A45G | self-cleavage | 1.26 |
| A18C G42A | self-cleavage | 0.17 |
| C38G U41C | self-cleavage | 0.19 |
| A3G A45G | self-cleavage | 0.78 |
| G9A A57U | self-cleavage | 0.15 |
| G16C U60A | self-cleavage | 0.29 |
| G9A A18G | self-cleavage | 0.21 |
| U41C A77G | self-cleavage | 1.17 |
| G24A A35G | self-cleavage | 0.38 |
| C12U U41C | self-cleavage | 1.31 |
| U1C U67A | self-cleavage | 0.4 |
| A21G A35G | self-cleavage | 1.16 |
| U66A U76C | self-cleavage | 0.57 |
| G22A A45U | self-cleavage | 0.11 |
| U51A A56G | self-cleavage | 0.5 |
| A35G U54C | self-cleavage | 1.29 |
| A20G A56U | self-cleavage | 0.47 |
| A20G G52A | self-cleavage | 0.9 |
| C29U C32U | self-cleavage | 0.51 |
| A18U U54C | self-cleavage | 0.32 |
| C34A U78C | self-cleavage | 0.32 |
| C44G U49C | self-cleavage | 0.19 |
| U49A U74A | self-cleavage | 1.34 |
| A21G C37U | self-cleavage | 0.39 |
| U43C A75G | self-cleavage | 0.39 |
| A45G G73C | self-cleavage | 0.69 |
| A13U C23A | self-cleavage | 0.33 |
| U54C U78A | self-cleavage | 1.03 |
| G7A U25C | self-cleavage | 0.33 |
